The values you see were collected from paper PMC7156458.

Let's look at some compounds and their measured Th-T fluorescence, mean of three wells.
tested-target: Aβ42 (Homo sapiens, UniProt P05067)
Sequence (P05067 672-713): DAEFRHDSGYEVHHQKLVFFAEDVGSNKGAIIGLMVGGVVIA
protocol-notes: Th-T (thioflavin-T) assay of Aβ42 aggregation
Assay type: biochemical
experimental-conditions: Aβ42 aggregation time course, reading M121
measured-quantity: Th-T fluorescence, mean of three wells

compound	result
C=C1CC[C@H]2[C@]3(C)C[C@H](C=C(C)C)O[C@H]3CC[C@]2(C)[C@@H]1Cc1c(O)c(C)c(C)oc1=O	3.063
C=C1CCC2C(C)(CCC=C(C)C)C(O)CCC2(C)C1Cc1c(OC)oc(CO)c(C)c1=O (stereo not shown)	2.047
C=C1CCC2C(C)(CC(=O)C=C(C)C)C(O)CCC2(C)C1Cc1c(OC)oc(C)c(C)c1=O (stereo not shown)	3.583
C=C1CCC2C(C)(CCC=C(C)C)C(O)CCC2(C)C1Cc1c(OC)oc(C)c(C(=O)OC)c1=O (stereo not shown)	1.668
C=C1CC[C@H]2[C@]3(C)C[C@H](C=C(C)C)O[C@H]3CC[C@]2(C)[C@@H]1Cc1c(OC)oc(C)c(C)c1=O	3.903
C=C1CC[C@H]2[C@]3(C)C[C@@H](C=C(C)C)O[C@H]3CC[C@]2(C)[C@@H]1Cc1c(OC)oc(CO)c(C)c1=O	3.639
CC(C)=CCC/C(C)=C/CC/C(C)=C/CC/C(C)=C/Cc1c(O)c(C)c(C)oc1=O	2.95

---

tested-target: Aβ42 (Homo sapiens, UniProt P05067)
protocol-notes: Th-T (thioflavin-T) assay of Aβ42 aggregation
Assay type: biochemical
experimental-conditions: column suffix _50; reading M18
measured-quantity: Th-T assay signal, mean of three wells (Fig. 7a)

compound	result
C=C1CCC2C(C)(CCC=C(C)C)C(O)CCC2(C)C1Cc1c(OC)oc(CO)c(C(=O)OC)c1=O (centres unmarked)	0.1952
C=C1CC[C@@H]2[C@](C)(CC[C@H]3O[C@H](C=C(C)C)C[C@@]23C)[C@@H]1Cc1c(OC)oc(CO)c(C(=O)OC)c1=O	0.2093
C=C1CCC2C(C)(CCC=C(C)C)C(O)CCC2(C)C1Cc1c(OC)oc(C)c(C(=O)OC)c1=O (centres unmarked)	0.5358
C=C1CCC2C(C)(CCC=C(C)C)C(O)CCC2(C)C1Cc1c(OC)oc(CO)c(C)c1=O (centres unmarked)	1.746
C=C1CC[C@@H]2[C@](C)(CC[C@H]3O[C@H](C=C(C)C)C[C@@]23C)[C@@H]1Cc1c(OC)oc(CO)c(C)c1=O	2.192

---

tested-target: Aβ42 (Homo sapiens)
protocol-notes: Th-T (thioflavin-T) assay of Aβ42 aggregation
Assay type: biochemical
experimental-conditions: reading M119; compound at 50 (head suffix _50)
measured-quantity: Th-T fluorescence, mean of three wells (Fig. 7a)

compound	result
C=C1CCC2C(C)(CCC=C(C)C)C(O)CCC2(C)C1Cc1c(OC)oc(C)c(C(=O)OC)c1=O (centres unmarked)	1.02
C=C1CCC2C(C)(CCC=C(C)C)C(O)CCC2(C)C1Cc1c(OC)oc(CO)c(C(=O)OC)c1=O (centres unmarked)	0.4763
C=C1CC[C@@H]2[C@](C)(CC[C@H]3O[C@H](C=C(C)C)C[C@@]23C)[C@@H]1Cc1c(OC)oc(CO)c(C(=O)OC)c1=O	0.4929
C=C1CCC2C(C)(CCC=C(C)C)C(O)CCC2(C)C1Cc1c(OC)oc(CO)c(C)c1=O (centres unmarked)	1.496
C=C1CC[C@@H]2[C@](C)(CC[C@H]3O[C@H](C=C(C)C)C[C@@]23C)[C@@H]1Cc1c(OC)oc(CO)c(C)c1=O	2.1065
